- System: 5637 bladder cancer cell line
- assay.summary: MTT cytotoxicity assay, 5637
- Type: cell-based, human
- applied.conditions: Homo sapiens, 72 h exposure
Entries annotated with measured pIC50
API: returns pIC50 as number; meaning -log10 of concentration in mol/L.

The examples below pair each entry with its known result.
{"compound": "C#CC(=O)N(c1ccc2c(c1)OCCO2)C(C(=O)NC1CCCC1)c1ccccc1 (stereo not shown) [Compound 8]", "pIC50": 5.72}
{"compound": "C#CC(=O)N(c1cccc(C(F)(F)F)c1)C(C(=O)NC1CCCCC1)c1cccs1 (stereo not shown) [Compound 13]", "pIC50": 5.80}
{"compound": "C#CC(=O)N(c1ccc(-n2cnnn2)c(C)c1)C(C(=O)NC1CCCC1)c1ccccc1 (stereo not shown) [Compound 9]", "pIC50": 6.40}
{"compound": "C#CC(=O)N(c1ccc(OC)c(OC)c1)C(C(=O)NC1CCCC1)c1cccs1 (stereo not shown) [Compound 3]", "pIC50": 5.70}
{"compound": "C#CC(=O)N(c1cccc(OC)c1)C(C(=O)NC1CCCC1)c1cccs1 (stereo not shown) [Compound 6]", "pIC50": 6.52}

-- ask Data request, read-out pIC50, for C#CC(=O)N(Cc1ccccc1Cl)C(C(=O)NC1CCCC1)c1ccccc1 (stereo not shown) [Compound 17]
-- reply 5.74

-- ask Data request, read-out pIC50, for C#CC(=O)N(Cc1ccco1)C(C(=O)NC1CCCC1)c1ccccc1F (stereo not shown) [Compound 10]
-- reply 5.54

-- ask Data request, read-out pIC50, for C#CC(=O)N(Cc1ccc2c(c1)OCO2)C(C(=O)NCc1ccccc1)c1ccccc1F (stereo not shown) [Compound 15]
-- reply 5.55

-- ask Data request, read-out pIC50, for C#CC(=O)N(c1ccccc1)C(C(=O)NC1CCCCC1)c1cccs1 (stereo not shown) [Compound 18]
-- reply 5.46

-- ask Data request, read-out pIC50, for C#CC(=O)N(c1ccccc1F)C(C(=O)NC1CCCCC1)c1ccccc1F (stereo not shown) [Compound 19]
-- reply 5.68

-- ask Data request, read-out pIC50, for C#CC(=O)N(c1ccc(-n2cnnn2)c(C)c1)C(C(=O)NC1CCCC1)c1ccccc1F (stereo not shown) [Compound 4]
-- reply 6.15

-- ask Data request, read-out pIC50, for C#CC(=O)N(c1cccc(C(F)(F)F)c1)C(C(=O)NC1CCCC1)c1cccc(OC)c1 (stereo not shown) [Compound 2]
-- reply 6.22

-- ask Data request, read-out pIC50, for C#CC(=O)N(c1cccc(C(F)(F)F)c1)C(C(=O)NC1CCCC1)c1ccc(F)cc1 (stereo not shown) [Compound 12]
-- reply 6.30

-- ask Data request, read-out pIC50, for C#CC(=O)N(c1cccc(C(F)(F)F)c1)C(C(=O)NCc1ccccc1)c1cccs1 (stereo not shown) [Compound 16]
-- reply 5.92

-- ask Data request, read-out pIC50, for C#CC(=O)N(c1ccc2ccccc2c1)C(C(=O)NC1CCCC1)c1ccccc1 (stereo not shown) [Compound 14]
-- reply 6.30

-- ask Data request, read-out pIC50, for C#CC(=O)N(c1cc(OC)cc(OC)c1)C(C(=O)NC1CCCCC1)c1ccc(OC)cc1 (stereo not shown) [Compound 1]
-- reply 5.66

-- ask Data request, read-out pIC50, for C#CC(=O)N(c1cc(OC)ccc1OC)C(C(=O)NC1CCCC1)c1cccs1 (stereo not shown) [Compound 7]
-- reply 6.52

-- ask Data request, read-out pIC50, for C#CC(=O)N(c1ccc(OC)cc1OC)C(C(=O)NC1CCCC1)c1cccs1 (stereo not shown) [Compound 5]
-- reply 5.77

-- ask Data request, read-out pIC50, for C#CC(=O)N(c1cc(OC)cc(OC)c1)C(C(=O)NC1CCCC1)c1ccc(OC)cc1 (stereo not shown) [Compound 11]
-- reply 5.72

====

Entries annotated with measured IC50
- Tested on: OVCAR3 ovarian cancer cell line
- assay.summary: In vitro cytotoxicity, OVCAR3
- Type: cell-based
- applied.conditions: Homo sapiens, OVCAR-3; Table 4, ovarian cancer panel
Write the value in nM as a bare number.

The examples below pair each entry with its known result.
{"compound": "C#CC(=O)N(CC(=O)NCC(=O)OCC)c1ccc(OC)cc1OC [Compound 43]", "IC50 / nM": 300}
{"compound": "C#CC(=O)N(c1ccc(-n2cnnn2)c(C)c1)C(C(=O)NC1CCCC1)c1cccc(F)c1 (stereo not shown) [Compound 23]", "IC50 / nM": 250}
{"compound": "C#CC(=O)N(CC(=O)NC1CCCC1)c1ccc(-n2cnnn2)c(C)c1 [Compound 30]", "IC50 / nM": 3000}
{"compound": "C#CC(=O)N(c1ccc(-n2cnnn2)c(C)c1)C(C(=O)NC1CCCC1)c1ccc(F)cc1 (stereo not shown) [Compound 21]", "IC50 / nM": 3100}

-- ask Data request, read-out IC50, for C#CC(=O)N(c1ccc(-n2cnnn2)c(C)c1)C(C(=O)NC1CCCC1)c1ccc(F)c(F)c1 (stereo not shown) [Compound 22]
-- reply 2500

-- ask Data request, read-out IC50, for C#CC(=O)N(c1cc(OC)cc(OC)c1)C(C(=O)NC1CCCCC1)c1ccc(OC)c(O)c1 (stereo not shown) [Compound 35]
-- reply 7500

-- ask Data request, read-out IC50, for C#CC(=O)N(c1ccc(C(N)=O)cc1)C(C(=O)NC1CCCC1)c1ccccc1 (stereo not shown) [Compound 34]
-- reply 2500

-- ask Data request, read-out IC50, for C#CC(=O)N(c1ccc(-n2cnnn2)c(C)c1)C(C(=O)NC1CCCC1)c1cccnc1 (stereo not shown) [Compound 31]
-- reply 2500

====

- Tested on: MDA-MB-435 breast cancer cell line
- assay.summary: MTT cytotoxicity assay, MDA-MB-435
- Format: cell-based, human
- applied.conditions: Homo sapiens, MDA-MB-435, 72 h, 72 h exposure
Entries annotated with measured IC50
Write the value in µM as a bare number.

The examples below pair each entry with its known result.
{"compound": "C#CC(=O)N(c1ccc2ccccc2c1)C(C(=O)NC1CCCC1)c1ccccc1 (stereo not drawn)", "endpoint.unit": "µM", "number": 7.3}
{"compound": "C#CC(=O)N(c1ccc(OC)cc1OC)C(C(=O)NC1CCCC1)c1cccs1 (stereo not drawn)", "endpoint.unit": "µM", "number": 1.7}
{"compound": "C#CC(=O)N(c1cc(OC)cc(OC)c1)C(C(=O)NC1CCCC1)c1ccc(OC)cc1 (stereo not drawn)", "endpoint.unit": "µM", "number": 2.4}
{"compound": "C#CC(=O)N(c1ccc2c(c1)OCCO2)C(C(=O)NC1CCCC1)c1ccccc1 (stereo not drawn)", "endpoint.unit": "µM", "number": 1.8}
{"compound": "C#CC(=O)N(c1ccccc1F)C(C(=O)NC1CCCCC1)c1ccccc1F (stereo not drawn)", "endpoint.unit": "µM", "number": 6.5}
{"compound": "C#CC(=O)N(c1ccc(OC)c(OC)c1)C(C(=O)NC1CCCC1)c1cccs1 (stereo not drawn)", "endpoint.unit": "µM", "number": 2}
{"compound": "C#CC(=O)N(c1cc(OC)ccc1OC)C(C(=O)NC1CCCC1)c1cccs1 (stereo not drawn)", "endpoint.unit": "µM", "number": 0.5}
{"compound": "C#CC(=O)N(c1cccc(C(F)(F)F)c1)C(C(=O)NC1CCCC1)c1ccc(F)cc1 (stereo not drawn)", "endpoint.unit": "µM", "number": 5.2}
{"compound": "C#CC(=O)N(c1cccc(C(F)(F)F)c1)C(C(=O)NC1CCCCC1)c1cccs1 (stereo not drawn)", "endpoint.unit": "µM", "number": 6.9}
{"compound": "C#CC(=O)N(Cc1ccccc1Cl)C(C(=O)NC1CCCC1)c1ccccc1 (stereo not drawn)", "endpoint.unit": "µM", "number": 8.2}

-- ask Data request, read-out IC50, for C#CC(=O)N(Cc1ccco1)C(C(=O)NC1CCCC1)c1ccccc1F (stereo not drawn)
-- reply 1.7

-- ask Data request, read-out IC50, for C#CC(=O)N(c1cccc(C(F)(F)F)c1)C(C(=O)NCc1ccccc1)c1cccs1 (stereo not drawn)
-- reply 4.2

====

- Test system: HT29 colon cancer cell line
- assay.summary: MTT cytotoxicity assay, HT29
- Format: cell-based
- applied.conditions: Homo sapiens, HT-29, 72 h exposure
Entries annotated with measured IC50

The examples below pair each entry with its known result.
{"compound": "C#CC(=O)N(c1ccccc1)C(C(=O)NC1CCCCC1)c1cccs1 (stereo not drawn)", "IC50": "> 10 µM"}
{"compound": "C#CC(=O)N(Cc1ccco1)C(C(=O)NC1CCCC1)c1ccccc1F (stereo not drawn)", "IC50": "> 10 µM"}

-- ask Param readout= IC50; system= HT29 colon cancer cell line; entry= C#CC(=O)N(Cc1ccc2c(c1)OCO2)C(C(=O)NCc1ccccc1)c1ccccc1F (stereo not drawn) ; returns value.
-- reply > 10 µM

====

Entries annotated with measured pIC50
- Tested on: doxorubicin-resistant NCI/ADR-RES ovarian cancer cell line
- assay.summary: Cytotoxicity assay, NCI/ADR-RES
- Type: cell-based
- applied.conditions: Homo sapiens, MTT, 72 h exposure (Table 2)
API: returns pIC50 as number; meaning -log10 of concentration in mol/L.

{"compound": "C#CC(=O)N(c1ccccc1)C(C(=O)NC1CCCCC1)c1cccs1 (stereo not drawn)", "pIC50": 5.89}
{"compound": "C#CC(=O)N(Cc1ccc2c(c1)OCO2)C(C(=O)NCc1ccccc1)c1ccccc1F (stereo not drawn)", "pIC50": 5.89}
{"compound": "C#CC(=O)N(c1ccc(-n2cnnn2)c(C)c1)C(C(=O)NC1CCCC1)c1ccccc1 (stereo not drawn)", "pIC50": 6.00}
{"compound": "C#CC(=O)N(c1cc(OC)cc(OC)c1)C(C(=O)NC1CCCC1)c1ccc(OC)cc1 (stereo not drawn)", "pIC50": 6.52}
{"compound": "C#CC(=O)N(c1cc(OC)ccc1OC)C(C(=O)NC1CCCC1)c1cccs1 (stereo not drawn)", "pIC50": 6.52}
{"compound": "C#CC(=O)N(c1cccc(C(F)(F)F)c1)C(C(=O)NC1CCCC1)c1cccc(OC)c1 (stereo not drawn)", "pIC50": 6.70}
{"compound": "C#CC(=O)N(c1ccc(-n2cnnn2)c(C)c1)C(C(=O)NC1CCCC1)c1ccccc1F (stereo not drawn)", "pIC50": 6.00}
{"compound": "C#CC(=O)N(c1ccc(OC)c(OC)c1)C(C(=O)NC1CCCC1)c1cccs1 (stereo not drawn)", "pIC50": 6.05}

-- ask Data request, read-out pIC50, for C#CC(=O)N(c1ccc2c(c1)OCCO2)C(C(=O)NC1CCCC1)c1ccccc1 (stereo not drawn)
-- reply 6.52

This collection of values is drawn from patent US20130071328A1.
